- Tested on: ATPase activity endogenous to L929 cell lysate
- PROCEDURE TEXT: Detergent inhibition of ATPase endogenous to L929 cell lysate (ATP remaining by luciferase luminescence, 22° C.)
- Type: biochemical
- Parameters: key: slope with detergent / slope without; ≥1.0 = 100% activity, 0.5 = 50%
- SETUP CONDITIONS: 0.10 percent detergent
MEASURED QUANTITY: Relative ATPase Activity, slope det/slope lysate
In your answer, state the number alone without any accompanying words.

Worked examples follow.
If you can, please state the reported Relative ATPase Activity, slope det/slope lysate value of C[C@H](CCC(=O)NCCC[N+](C)(C)CCCS(=O)(=O)[O-])[C@H]1CC[C@H]2[C@@H]3[C@H](O)C[C@@H]4C[C@H](O)CC[C@]4(C)[C@H]3C[C@H](O)[C@]12C .
1.023

Please answer likewise for CCCCCCCCCCCC[N+](C)(C)CCCS(=O)(=O)[O-]
1.109

Shifting focus to the compound that follows.
If you can, please state the reported Relative ATPase Activity, slope det/slope lysate value of CCCCCCCCCCCC[N+](C)(C)C.[Br-] [DTAB, dodecyltrimethylammonium bromide] .
0.480
